Documented Pre-emerge Herbicidal Activity AMARE across a set of molecules
System: redroot pigweed (Amaranthus retroflexus, AMARE)
Experiment: Pre-emerge test, greenhouse herbicide activity screening
Type: in vivo
Conditions: 250 g ai/ha; phytotoxicity rating 0-100, 14 days after application

{"chem_smiles": "COc1c(Cl)cc(F)c(-n2c(=O)cc(C(F)(F)F)n(C)c2=O)c1NC(=O)OCc1ccccn1", "Pre-emerge Herbicidal Activity AMARE": 100}
{"chem_smiles": "COc1c(Cl)cc(F)c(-n2c(=O)cc(C(F)(F)F)n(C)c2=O)c1NC(=O)OCc1cccc(F)c1", "Pre-emerge Herbicidal Activity AMARE": 100}
{"chem_smiles": "Cn1c(C(F)(F)F)cc(=O)n(-c2ccc(OC(F)(F)F)cc2NC(=O)c2ccc3ccccc3c2)c1=O", "Pre-emerge Herbicidal Activity AMARE": 100}
{"chem_smiles": "Cn1c(C(F)(F)F)cc(=O)n(-c2ccc(C(N)=S)cc2NC(=O)c2ccc3ccccc3c2)c1=O", "Pre-emerge Herbicidal Activity AMARE": 100}
{"chem_smiles": "COc1ccc(COC(=O)Nc2c(OC)c(Cl)cc(F)c2-n2c(=O)cc(C(F)(F)F)n(C)c2=O)cc1", "Pre-emerge Herbicidal Activity AMARE": 100}
{"chem_smiles": "Cn1c(C(F)(F)F)cc(=O)n(-c2ccc(Cl)cc2NC(=O)OCc2ccccc2F)c1=O", "Pre-emerge Herbicidal Activity AMARE": 100}
{"chem_smiles": "COc1c(Cl)cc(F)c(-n2c(=O)cc(C(F)(F)F)n(C)c2=O)c1NC(=O)OCc1ccccc1C(F)(F)F", "Pre-emerge Herbicidal Activity AMARE": 100}
{"chem_smiles": "Cn1c(C(F)(F)F)cc(=O)n(-c2c(F)cc(Cl)c(O)c2NC(=O)c2ccc3ccccc3c2)c1=O", "Pre-emerge Herbicidal Activity AMARE": 100}
{"chem_smiles": "COc1c(Cl)cc(F)c(-n2c(=O)cc(C(F)(F)F)n(C)c2=O)c1NC(=O)OCc1ccc2ccccc2c1", "Pre-emerge Herbicidal Activity AMARE": 70}
{"chem_smiles": "CCOC(=O)COc1c(Cl)cc(F)c(-n2c(=O)cc(C(F)(F)F)n(C)c2=O)c1NC(=O)C=Cc1ccccc1", "Pre-emerge Herbicidal Activity AMARE": 100}
{"chem_smiles": "COc1c(Cl)cc(F)c(-n2c(=O)cc(C(F)(F)F)n(C)c2=O)c1NC(=O)C1CC1", "Pre-emerge Herbicidal Activity AMARE": 80}
{"chem_smiles": "CCc1ccc(COC(=O)Nc2c(OC)c(Cl)cc(F)c2-n2c(=O)cc(C(F)(F)F)n(C)c2=O)cc1", "Pre-emerge Herbicidal Activity AMARE": 100}
{"chem_smiles": "COc1c(Cl)cc(F)c(-n2c(=O)cc(C(F)(F)F)n(C)c2=O)c1NC(=O)OCc1ccc(Cl)c(Cl)c1", "Pre-emerge Herbicidal Activity AMARE": 100}
